The measured values listed here are drawn from ChEMBL document CHEMBL3407477.

Organism: Rattus norvegicus
Experiment: Selectivity ratio of Ki for rat brain DOR to Ki for rat brain MOR
Outcome: true (1) for Ratio Ki of at least 10; false (0) for anything lower.

**Query** Is the recorded value of Ratio Ki equal to or greater than 10 for this molecule? Cc1cc(O)cc(C)c1C[C@H](N)C(=O)N[C@H](CCCNC(=N)N)C(=O)N[C@H]1Cc2ccccc2CN(CCC(=O)N(C)Cc2ccccc2)C1=O
**Result** false (0)

**Query** Is the recorded value of Ratio Ki equal to or greater than 10 for this molecule? Cc1cc(O)cc(C)c1C[C@H](N)C(=O)N[C@H](CCCNC(N)=O)C(=O)N[C@H]1Cc2ccccc2CN(CCC(=O)N(C)Cc2cc(C(F)(F)F)cc(C(F)(F)F)c2)C1=O
**Result** false (0)

**Query** Is the recorded value of Ratio Ki equal to or greater than 10 for this molecule? Cc1cc(O)cc(C)c1C[C@H](N)C(=O)N[C@H](CCCNC(=N)N)C(=O)N[C@H]1Cc2ccccc2CN(CC(N)=O)C1=O
**Result** false (0)

**Query** Is the recorded value of Ratio Ki equal to or greater than 10 for this molecule? Cc1cc(O)cc(C)c1C[C@H](N)C(=O)N[C@H](CCCNC(=N)N)C(=O)N[C@H]1Cc2ccccc2CN(CC(=O)N(C)Cc2ccccc2)C1=O
**Result** true (1)

**Query** Is the recorded value of Ratio Ki equal to or greater than 10 for this molecule? Cc1cc(O)cc(C)c1C[C@H](N)C(=O)N[C@H](CCCNC(=N)N)C(=O)N[C@H]1Cc2ccccc2CN(CCC(N)=O)C1=O
**Result** true (1)

**Query** Is the recorded value of Ratio Ki equal to or greater than 10 for this molecule? Cc1cc(O)cc(C)c1C[C@H](N)C(=O)N[C@H](CCCNC(=N)N)C(=O)N[C@H]1Cc2ccccc2CN(CC(=O)N(C)Cc2cc(C(F)(F)F)cc(C(F)(F)F)c2)C1=O
**Result** true (1)
